Target: monomeric alpha-synuclein, P37840
Assay: SPR, captured mAb
Conditions: remark: other sources report otherwise
endpointName: pKd
API: returns pKd as number; meaning -log10 of concentration in mol/L.

[[record]]
binder = "ACI-7079-2506F3-Ab1 (antibody, V domains shown) VH: QVQLQQPGAELVKPGASVKLSCKASGYTFTTYWMQWVKQRPGQGLEWIGEIDPSDSYINYNQKFKGKATLTVDTSSSTAFMQLSSLTSEDSAVYYCARGMMDYWGQGTSVTVSS VL: DVLMTQTPLSLPVSLGDQASISCRSSQSIVHSNGNTYLEWYLQKPGQSPKLLIYKVSNRFSGVPDRFSGSGSGTDFTLKISRVEAEDLGVYYCFKGSHVPYTFGGGTKLEIK"
endpointname = "pKd"
valuereported = 8.62


Answer with reported pKd of ACI-7089-4418F6-Ab1 (antibody, V domains shown) VH: QVQLQQSGAELARPGASVKVSCKASGYTFTSSGISWLKHRTGQGLEWIGDIYPRSGNTYYNEKFKDKATLTADKSSSTAYMELRSLTSEDSAVYFCSSGNYWGQGTTLTVSS VL: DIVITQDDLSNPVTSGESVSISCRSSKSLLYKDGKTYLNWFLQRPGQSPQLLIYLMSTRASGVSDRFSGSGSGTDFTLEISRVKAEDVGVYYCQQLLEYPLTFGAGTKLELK
10.00
